B1: DYRK1B (parent)
chain: YQGPGTRRLQEVLGVQTGGPGGRR

# Variants of: B1
# Experiment Notes: protein stability index of a GFP-peptide fusion (GPS, HEK-293T) (PSI 1-6); higher = more stable;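 note: lentivirally expressed fusions sorted by FACS into six bins by GFP to DsRed ratio, PSI derived from sequencing read proportions per bin multiplied by bin number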
# Condition Summary: c terminus: a fixed tail appended
Quantity: protein stability index
# print the numeric value only

[
  {
    "Mutant Label": "T6L",
    "protein stability index": 2.37
  },
  {
    "Mutant Label": "G18D",
    "protein stability index": 4.02
  },
  {
    "Mutant Label": "L9M",
    "protein stability index": 3.71
  }
]

Request: Entry G19I has what protein stability index?
Result: 2.85

Request: protein stability index lookup needed for Q10S , thanks.
Result: 3.57

Request: Which protein stability index reading was recorded for the variant G22E ?
Result: 3.4

Request: protein stability index for Q2G ?
Result: 3.39

Request: Suppose we examine the variant L9S ; what protein stability index value has been reported?
Result: 4.65

Request: Consider the variant shown here: G14Y What is its recorded protein stability index?
Result: 2.98

Request: Given the entry Q16H , report its measured protein stability index.
Result: 3.75

Request: Any idea what its protein stability index is? The variant is Q2R
Result: 3.87
